Values compiled from patent US10500209B2.

result.type: melting point

Look up melting point of COc1ccc(-c2nc3cc(OC)cc(OC)c3c(=O)[nH]2)c(NCCN2CCN(C)CC2)c1 [Example 25] and report it. 230 to 231 °C

Report measured melting point; entry is COc1cc(OC)c2c(=O)[nH]c(-c3ncccc3NC3CCN(C)CC3)nc2c1 [Example 44] 186 to 188 °C

Name the recorded melting point of the item COc1cc(OC)c2c(=O)[nH]c(-c3ncccc3NCCNC(=O)C(C)C)nc2c1 [Example 56] in your answer. 235 to 237 °C

Could you now look at the following compound, please?
Answer with the recorded melting point for the compound listed here: COc1cc(OC)c2c(=O)[nH]c(-c3ncccc3NC3CCN(C(=O)C(F)(F)F)CC3)nc2c1 [Example 46] 218 to 219 °C

###

Form field: melting point (one value per entry).

For orientation, consider the following solved cases.
Report melting point, nothing else, for this compound: COc1cc(OC)c2c(=O)[nH]c(-c3ncccc3NC3CCN(C(C)(C)CO)CC3)nc2c1 223 to 225 °C

Return melting point for the following compound: COc1cc(OC)c2c(=O)[nH]c(-c3ncccc3N[C@H]3CC[C@@H](C(=O)N(C)C)CC3)nc2c1 276 to 278 °C

Quick one: give measured melting point for COc1ccc(-c2nc3cc(OC)cc(OC)c3c(=O)[nH]2)c(NC2CCOCC2)c1 286 to 287 °C

Query melting point for COc1cnc(-c2nc3cc(OC)cc(OC)c3c(=O)[nH]2)c(NC2CCN(C)CC2)c1 191 to 193 °C

Output measured melting point for this item: COc1cc(OC)c2c(=O)[nH]c(-c3ncccc3NCCN3CCOCC3)nc2c1 168 to 170 °C

For COc1cc(OC)c2c(=O)[nH]c(-c3ccc(Cl)cc3NC3CCN(C(C)C)CC3)nc2c1 , write its melting point. 265 °C (dec.)

Further cases:
Give melting point for COc1cc(OC)c2c(=O)[nH]c(-c3ncccc3NC3CCN(C(=O)NC(C)C)CC3)nc2c1 198 to 199 °C

Using known records, supply melting point for COC(=O)C(=O)N1CCC(Nc2cccnc2-c2nc3cc(OC)cc(OC)c3c(=O)[nH]2)CC1 165 to 166 °C

###

result.type: melting point

Below, 10 compounds whose answers are already recorded.
Supply recorded melting point for COc1cc(OC)c2c(=O)[nH]c(-c3ncccc3NC3CCN(CC(C)(C)O)CC3)nc2c1 here. 220 to 221 °C

For COc1ccc(-c2nc3cc(OC)cc(OC)c3c(=O)[nH]2)c(NCCCN2CCN(C)CC2)c1 , write its melting point. 220 to 222 °C

Give the reported value of melting point for this record: COc1ccc(-c2nc3cc(OC)cc(OC)c3c(=O)[nH]2)c(N(C)C2CCN(C)CC2)c1 217 to 218 °C

Supply measured melting point of COc1cc(OC)c2c(=O)[nH]c(-c3ccccc3NC3CCN(C(C)C)CC3)nc2c1 in your reply. 267 to 269 °C

// fetch melting point given entry COc1ccc(-c2nc3cc(OC)cc(OC)c3c(=O)[nH]2)c(N[C@H]2CC[C@H](C(C)(C)O)CC2)c1 253 °C (dec.)

Read off the recorded melting point for COc1cc(OC)c2c(=O)[nH]c(-c3ncc(OCCN4CCCC4)cc3NC3CCN(C(C)C)CC3)nc2c1 166 to 169 °C

Specify measured melting point for COc1ccc(-c2nc3cc(OC)cc(OC)c3c(=O)[nH]2)c(NCC2CCN(C)CC2)c1 . 264 to 265 °C

For the compound COc1ccc(-c2nc3cc(OC)cc(OC)c3c(=O)[nH]2)c(NC2CCN(C)CC2)c1 , give its reported melting point. 252 to 253 °C

Provide melting point value for the following compound: COc1cc(OC)c2c(=O)[nH]c(-c3ncccc3NC3CCN(C(=O)C(=O)N(C)C)CC3)nc2c1 261 to 262 °C

Identify measured melting point corresponding to COc1ccc(-c2nc3cc(OC)cc(OC)c3c(=O)[nH]2)c(NCCN2CCCCC2)c1 231 to 232 °C

Next:
Write down melting point measured for item COc1ccc(-c2nc3cc(OC)cc(OC)c3c(=O)[nH]2)c(NCCN2CCOCC2)c1 239 to 240 °C

Please supply the value of reported melting point for the item COc1ccc(-c2nc3cc(OC)cc(OC)c3c(=O)[nH]2)c(NCCN2CCCC2)c1 226 to 228 °C

Given COc1cc(OC)c2c(=O)[nH]c(-c3ncccc3NCC3CCN(C)C3)nc2c1 (centres unmarked) , respond with its melting point. 157 to 159 °C

Tell me measured melting point for COc1ccc(-c2nc3cc(OC)cc(OC)c3c(=O)[nH]2)c(NCCNC(C)C)c1 please. 262 to 264 °C

Provide measured melting point value, entry: COc1ccc(-c2nc3cc(OC)cc(OC)c3c(=O)[nH]2)c(NCCCN2CCNCC2)c1 225 to 228 °C

Item COc1ccc(-c2nc3cc(OC)cc(OC)c3c(=O)[nH]2)c(NCCCN2CCOCC2)c1 : provide melting point 234 to 235 °C

Consider the compound COc1cc(OC)c2c(=O)[nH]c(-c3ncccc3NC3CCN(C(=O)C(C)O)CC3)nc2c1 (centres unmarked) and give its recorded melting point. 290 to 291 °C
